# tested system: GSK3α (GST-full length GSK3α) (Homo sapiens (Human), UniProt P49840)
# Sequence (P49840 whole entry): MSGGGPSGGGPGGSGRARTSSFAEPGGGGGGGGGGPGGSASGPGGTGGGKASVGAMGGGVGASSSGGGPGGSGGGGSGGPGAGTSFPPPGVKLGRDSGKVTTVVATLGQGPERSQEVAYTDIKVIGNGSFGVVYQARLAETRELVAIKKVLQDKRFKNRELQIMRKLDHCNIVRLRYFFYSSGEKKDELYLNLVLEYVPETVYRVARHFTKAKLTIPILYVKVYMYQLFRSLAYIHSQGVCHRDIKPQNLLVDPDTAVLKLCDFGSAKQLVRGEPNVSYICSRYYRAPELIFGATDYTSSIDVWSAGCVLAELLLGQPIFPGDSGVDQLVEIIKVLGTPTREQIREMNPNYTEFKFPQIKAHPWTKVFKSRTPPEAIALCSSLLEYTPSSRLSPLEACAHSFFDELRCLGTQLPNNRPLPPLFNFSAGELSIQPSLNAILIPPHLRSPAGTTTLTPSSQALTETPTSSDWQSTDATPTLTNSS
# assay info: GSK3α TR-FRET kinase assay
# Assay type: biochemical
# condition context: 1 nM GSK3α, 4 μM ATP, 30 minute preincubation, Table 16; read-out: GSK3-A TR-FRET BIOCHEMICAL (TR-FRET); IC50
# Method: TR-FRET Assay: The assay was performed in a white, 384 well, low volume, flat bottom plate (Grenier). After a 30 minute preincubation in assay buffer with the indicated concentration of compound, the kinase activity was initiated by the addition of the substrates. […] After 60 min at room temperature the plate was read on Envision plate reader using Ex: 340 nm, Em: 615 nm and […]. The normalized 665/615 Signal ratio versus log compound concentration was analyzed by XLFIT to yield IC50 values.
pIC50: −log10 of the molar value.
Each item that follows carries a reported pIC50.

Observe how each entry below is paired with its result.
> print(dat)
                                   compound                             tested.system   measurement
1  CCC1(c2cccc(OC)c2)C2=C(CC(C)(C)CC2=O)Nc2n[nH]c(C(=O)OC)c21 (centres unmarked) [Compound 901480]  GSK3α (GST-full length GSK3α) (Homo sapiens (Human), UniProt P49840)        ≥ 7.00
2  CC[C@]1(c2cccc(C(F)F)c2)C2=C(CC(C)(C)NC2=O)Nc2n[nH]c(C(F)(F)F)c21 [Compound 951946]  GSK3α (GST-full length GSK3α) (Homo sapiens (Human), UniProt P49840)  6.00 to 7.00
3  CCN(C(C)=O)c1cccc(C2(CC)C3=C(CC(C)(C)CC3=O)Nc3n[nH]cc32)c1 (centres unmarked) [Compound 884109]  GSK3α (GST-full length GSK3α) (Homo sapiens (Human), UniProt P49840)        ≥ 7.00
4  CCC1(c2cccc(-c3cn[nH]c3)c2)C2=C(CC(C)(C)CC2=O)Nc2n[nH]c(C)c21 (centres unmarked) [Compound 883994]  GSK3α (GST-full length GSK3α) (Homo sapiens (Human), UniProt P49840)        ≥ 7.00
5  CCC1(c2cccc(-c3ccnc4c3CCC4)c2)C2=C(CC(C)(C)C2=O)Nc2n[nH]cc21 (centres unmarked) [Compound 952557]  GSK3α (GST-full length GSK3α) (Homo sapiens (Human), UniProt P49840)        ≥ 7.00

Prompt line: Field request: pIC50 | item: CC[C@]1(c2cccc(-c3cncn3C)c2)C2=C(CC(C)(C)CC2=O)Nc2n[nH]c(C)c21 [Compound 913037]
Response line: ≥ 7.00

Prompt line: Field request: pIC50 | item: CC1(C)CC(=O)C2=C(C1)Nc1n[nH]cc1C21CCCN(c2ccncc2)CC1 (centres unmarked) [Compound 932633]
Response line: < 5.30

Prompt line: Field request: pIC50 | item: CCC1(c2cccc(N(C)C(=O)CN3CCCC3)c2)C2=C(CC(C)(C)CC2=O)Nc2n[nH]cc21 (centres unmarked) [Compound 913125]
Response line: ≥ 7.00

Prompt line: Field request: pIC50 | item: CCC1(c2cccc(-c3ccnc(OC(C)C)c3)c2)C2=C(CC(C)(C)CC2=O)Nc2n[nH]cc21 (centres unmarked) [Compound 932626]
Response line: 6.00 to 7.00

Prompt line: Field request: pIC50 | item: CCC1(c2cccc(N3CC(C)C(C)C3)c2)C2=C(CC(C)(C)CC2=O)Nc2n[nH]cc21 (centres unmarked) [Compound 918326]
Response line: 6.00 to 7.00

----------
# tested system: UniProt P49840
# assay info: GSK3α TR-FRET kinase assay
# Assay type: biochemical
# condition context: 1 nM GSK3α, 4 μM ATP, 30 minute preincubation; geometric mean; read-out: GSK3-A TR-FRET BIOCHEMICAL (TR-FRET); GMean; IC50
readout type: IC50

> print(dat)
                                   molecule      measurement
1  CCC1(c2cccc(-c3ccnn3C)c2)C2=C(CC3(CCOC3)NC2=O)Nc2n[nH]cc21 (stereo not drawn) [Compound 948016]        > 5000 nM
2  CCC1(c2cccc(CN(C)C(=O)COC)c2)C2=C(CC(C)(C)CC2=O)Nc2n[nH]cc21 (stereo not drawn)   100 to 1000 nM
3  CCC1(c2cccc(-c3ccnn3C)c2)C2=C(CC3(CCCOC3)NC2=O)Nc2n[nH]cc21 (stereo not drawn)  1000 to 5000 nM
4  CCC1(c2cccc(-c3ccnc(C)c3)c2)C2=C(CC(C)(C)NC2=O)Nc2n[nH]c(F)c21 (stereo not drawn) [Compound 949001]   100 to 1000 nM
5  CC[C@]1(c2cccc(S(=O)(=O)C3CC3)c2)C2=C(CC(C)(C)NC2=O)Nc2[nH]nc(C(F)(F)F)c21         ≤ 100 nM

Prompt line: Field request: IC50 | item: CC[C@@]1(c2ccccc2)C2=C(C[C@H](c3ccccc3)CC2=O)Nc2n[nH]cc21
Response line: > 5000 nM

Prompt line: Field request: IC50 | item: CCC1(c2cccc(-c3ccnc(C)c3C)c2)C2=C(CC(C)(C)NC2=O)Nc2n[nH]c(C)c21 (stereo not drawn) [Compound 947399]
Response line: 100 to 1000 nM

Prompt line: Field request: IC50 | item: CCC1(c2cccc(-n3ccnc3)c2)C2=C(CC(C)(C)CC2=O)Nc2n[nH]cc21 (stereo not drawn) [Compound 854926]
Response line: ≤ 100 nM

Prompt line: Field request: IC50 | item: CC[C@]1(c2cccc(-c3ccnc(C)c3)c2)C2=C(C[C@]3(CCOC3)NC2=O)Nc2n[nH]cc21
Response line: ≤ 100 nM

Prompt line: Field request: IC50 | item: CC[C@@]1(c2cccc(N3CCOCC3)c2)C2=C(CC(C)(C)NC2=O)Nc2n[nH]c(C(F)(F)F)c21
Response line: ≤ 100 nM

Prompt line: Field request: IC50 | item: CCC1(c2cccc(S(=O)(=O)C(C)C)c2)C2=C(CC(C)(C)NC2=O)Nc2n[nH]c(C(F)(F)F)c21 (stereo not drawn)
Response line: ≤ 100 nM

Prompt line: Field request: IC50 | item: CCC1(c2cccc(N3CCCCC3)c2)C2=C(CC(C)(C)CC2=O)Nc2n[nH]c(C(F)(F)F)c21 (stereo not drawn)
Response line: 100 to 1000 nM

Prompt line: Field request: IC50 | item: CCC1(c2cccc(-c3ccnc4ccc(C)cc34)c2)C2=C(CC(C)(C)NC2=O)Nc2n[nH]cc21 (stereo not drawn)
Response line: > 5000 nM

Prompt line: Field request: IC50 | item: C[C@]1(c2ccccc2)C2=C(CC3(CCCC3)CC2=O)Nc2n[nH]cc21
Response line: > 1700 nM

Prompt line: Field request: IC50 | item: CC[C@]1(c2ccccc2)C2=C(C[C@](C)(COC)CC2=O)Nc2n[nH]cc21
Response line: > 5000 nM

----------
# tested system: GSK3b (GST-full length GSK3b) (Homo sapiens (Human), UniProt P49841)
# Sequence (P49841 whole entry): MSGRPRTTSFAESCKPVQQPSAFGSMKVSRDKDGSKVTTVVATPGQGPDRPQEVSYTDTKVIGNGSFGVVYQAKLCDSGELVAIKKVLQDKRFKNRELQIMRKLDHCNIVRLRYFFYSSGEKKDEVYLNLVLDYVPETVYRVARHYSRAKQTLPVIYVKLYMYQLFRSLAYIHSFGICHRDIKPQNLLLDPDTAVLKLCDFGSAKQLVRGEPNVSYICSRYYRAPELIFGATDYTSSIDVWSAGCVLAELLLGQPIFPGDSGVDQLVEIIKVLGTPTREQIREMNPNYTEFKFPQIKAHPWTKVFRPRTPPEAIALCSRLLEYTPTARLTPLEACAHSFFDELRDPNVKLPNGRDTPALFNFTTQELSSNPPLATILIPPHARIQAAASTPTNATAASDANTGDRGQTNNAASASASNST
# assay info: GSK3b TR-FRET kinase assay
# Assay type: biochemical
# condition context: 1 nM GSK3b, 2 μM ATP, 30 minute preincubation, Table 16; read-out: GSK3-B TR-FRET BIOCHEMICAL (TR-FRET)
Each item that follows carries a reported IC50.

Observe how each entry below is paired with its result.
> print(dat)
                                   compound  readout.type  measurement
1  COC(=O)C1CCC2(CC1)C1=C(CC(C)(C)CC1=O)Nc1n[nH]cc12 (centres unmarked) [Compound 918270]          IC50  0.1 to 1 µM
2  CC1(C)CC(=O)C2=C(Nc3n[nH]cc3C23CCCCC3)[C@H]1F          IC50     ≤ 0.1 µM

Prompt line: Field request: IC50 | item: CCC1(c2cccc(C(F)(F)F)c2)C2=C(CC3(CCN(C)C3=O)CC2=O)Nc2n[nH]cc21 (centres unmarked) [Compound 950329]
Response line: ≤ 0.1 µM

Prompt line: Field request: IC50 | item: CC1(C)CC(=O)C2=C(C1)Nc1n[nH]cc1[C@]21CC[C@@H](c2ccncc2)CC1
Response line: 1 to 5 µM

Prompt line: Field request: IC50 | item: CCC1(c2cccc(-c3ccnn3C)c2)C2=C(Nc3n[nH]cc31)C(F)C(C)(C)CC2=O (centres unmarked)
Response line: > 5 µM

Prompt line: Field request: IC50 | item: COc1cccc(S(=O)(=O)N2CC3(C2)C2=C(CC(C)(C)CC2=O)Nc2n[nH]cc23)c1
Response line: ≤ 0.1 µM

Prompt line: Field request: IC50 | item: CCC1(c2cccc(N(C)c3cc(C)ccn3)c2)C2=C(CC(C)(C)CC2=O)Nc2n[nH]cc21 (centres unmarked) [Compound 943537]
Response line: 0.1 to 1 µM

Prompt line: Field request: IC50 | item: CCC1(c2cccc(-c3ncnn3C)c2)C2=C(CC(C)(C)CC2=O)Nc2n[nH]cc21 (centres unmarked) [Compound 943532]
Response line: 0.1 to 1 µM
